molecular target: T1, TDRD3 (aa 520–633) (human, UniProt Q9H7E2 520-633); assay: fluorescence polarisation; fluorescein-labeled peptides; 20 mM Tris pH 7.5, 50 mM NaCl, 1 mM DTT, 0.01% Triton X-100; 25°C; one-site binding model; Kd the average of three independent measurements; details: both partners purified
T1 construct: cloned into the pET28-MHL vector; also called Tudor domain-containing protein 3; source: E. coli BL21 (DE3), purified (Ni-NTA, size exclusion chromatography)
Square brackets hold non-standard residues; d marks the D form. Ends that are not written are not given here. Arg(Me2a) = CN(C)C(=N)NCCC[C@H](N)C(=O)O; Arg(Me2s) = CN=C(NC)NCCC[C@H](N)C(=O)O; Arg(Me) = CNC(=N)NCCC[C@H](N)C(=O)O
metricName: Kd

Answered examples (4):
TG[Arg(Me2s)]ARARARGRARGQE (also: fluorescein label, position not given here, N-terminal GAR motif stretch of PIWIL1, R4 symmetrically dimethylated; also called symmetrical dimethylated peptide of the PIWIL1 protein; source: synthetic peptide (Tufts University Core Services)) [PIWIL1-R4me2s]    > 300 µM
TGRARARARGRARGQE (also: fluorescein label, position not given here, N-terminal GAR motif stretch of PIWIL1, unmethylated; also called unmethylated PIWIL1 peptide; source: synthetic peptide (Tufts University Core Services)) [PIWIL1-R4un]    > 500 µM
TG[Arg(Me)]ARARARGRARGQE (also: fluorescein label, position not given here, N-terminal GAR motif stretch of PIWIL1, R4 monomethylated; also called monomethylated PIWIL1 peptide; source: synthetic peptide (Tufts University Core Services)) [PIWIL1-R4me1]    > 500 µM
TG[Arg(Me2a)]ARARARGRARGQE (also: fluorescein label, position not given here, N-terminal GAR motif stretch of PIWIL1, R4 asymmetrically dimethylated; also called asymmetrical dimethylated PIWIL1 peptide; source: synthetic peptide (Tufts University Core Services)) [PIWIL1-R4me2a]    > 150 µM

Field: next binder
Item GGRG[Arg(Me2s)]GRG (also: fluorescein label, position not given here, GAR motif peptide named after SmD3; also called SmD3 peptide; source: synthetic peptide (Tufts University Core Services)) [SmD3RSDMA] has what recorded Kd?
> 400 µM

Numbers sourced from paper PMC3281842.
